Data origin: patent US5095137A

subject-of-test: ACE (Rattus norvegicus, UniProt P47820)
Construct: by the ACE contained in the rat serum; from tissue; host or cells: rat serum
assay-notes: ACE inhibition: hydrolysis of the ippuril-glycil-glycine artificial substrate by the ACE contained in rat serum
Assay type: biochemical
readout-name: IC50 (nM)

>  <compound>
CN(CC(=O)NO)C(=O)[C@@H]1CCCC[C@H]1C(=O)O (relative stereo)

>  <IC50 (nM)>
20

$$$$
>  <compound>
CN(C(=O)[C@H]1CCCC[C@H]1C(=O)O)C(CCc1ccccc1)C(=O)NO (stereo partly drawn)

>  <IC50 (nM)>
62

$$$$
>  <compound>
CCN(CC(=O)NO)C(=O)[C@@H]1CCCC[C@H]1C(=O)O [Example 7]

>  <IC50 (nM)>
7.6

$$$$
>  <compound>
CC(=O)ON(C(C)=O)C(=O)CN(C)C(=O)[C@H]1CCCC[C@H]1C(=O)O (relative stereo)

>  <IC50 (nM)>
280

$$$$
>  <compound>
O=C(NO)C(CCCc1ccccc1)NC(=O)[C@H]1CCCC[C@H]1C(=O)O (relative stereo)

>  <IC50 (nM)>
10000

$$$$

a. O=C(NO)C(CCc1ccccc1)NC(=O)[C@H]1CCCC[C@H]1C(=O)O (relative stereo)
b. CCN(CC(=O)NO)C(=O)[C@@H]1CCCC[C@H]1C(=O)O (relative stereo) [Example 2]
c. CN(CC(=O)NO)C(=O)[C@@H]1CCC[C@H]1C(=O)O (relative stereo)
Reorder the items by IC50, least to greatest. A complete answer lists every label in the requested sequence.
b, c, a
(b: 8 nM, c: 730 nM, a: 28000 nM)

###

subject-of-test: ACE (Rattus norvegicus)
Construct: by the ACE contained in the rat serum
Sequence (P47820 36-1238 limits assumed): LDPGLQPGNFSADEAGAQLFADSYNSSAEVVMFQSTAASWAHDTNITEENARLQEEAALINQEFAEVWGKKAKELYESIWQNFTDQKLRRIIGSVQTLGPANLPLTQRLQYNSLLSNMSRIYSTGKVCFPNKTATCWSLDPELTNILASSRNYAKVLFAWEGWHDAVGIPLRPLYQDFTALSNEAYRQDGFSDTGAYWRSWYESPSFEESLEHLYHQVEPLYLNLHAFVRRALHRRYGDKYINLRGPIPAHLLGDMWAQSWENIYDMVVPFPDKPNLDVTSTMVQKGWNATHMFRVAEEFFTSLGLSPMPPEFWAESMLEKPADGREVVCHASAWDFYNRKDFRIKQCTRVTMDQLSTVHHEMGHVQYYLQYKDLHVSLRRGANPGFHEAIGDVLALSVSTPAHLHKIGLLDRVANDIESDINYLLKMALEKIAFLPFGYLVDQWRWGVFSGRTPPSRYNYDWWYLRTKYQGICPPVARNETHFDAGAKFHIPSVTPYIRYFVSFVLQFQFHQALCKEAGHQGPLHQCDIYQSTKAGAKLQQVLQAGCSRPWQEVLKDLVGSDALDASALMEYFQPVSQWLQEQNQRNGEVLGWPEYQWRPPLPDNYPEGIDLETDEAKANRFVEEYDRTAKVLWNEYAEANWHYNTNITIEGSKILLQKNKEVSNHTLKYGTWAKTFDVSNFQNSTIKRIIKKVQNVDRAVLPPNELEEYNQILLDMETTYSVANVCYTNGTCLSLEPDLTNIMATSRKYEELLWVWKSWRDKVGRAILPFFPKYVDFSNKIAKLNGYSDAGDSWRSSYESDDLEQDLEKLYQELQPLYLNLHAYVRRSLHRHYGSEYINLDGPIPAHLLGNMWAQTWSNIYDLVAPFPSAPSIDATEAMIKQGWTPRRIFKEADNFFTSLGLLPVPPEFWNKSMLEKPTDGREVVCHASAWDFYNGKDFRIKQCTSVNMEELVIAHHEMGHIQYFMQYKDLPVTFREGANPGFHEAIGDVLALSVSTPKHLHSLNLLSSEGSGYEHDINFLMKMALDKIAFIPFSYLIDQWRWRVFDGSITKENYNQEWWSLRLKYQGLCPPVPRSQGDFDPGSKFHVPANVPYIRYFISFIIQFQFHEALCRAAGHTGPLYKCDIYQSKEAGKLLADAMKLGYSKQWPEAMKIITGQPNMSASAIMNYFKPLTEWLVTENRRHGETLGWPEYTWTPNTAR
assay-notes: ACE inhibition: hydrolysis of the ippuril-glycil-glycine artificial substrate by the ACE contained in rat serum
readout-name: IC50 (nM)

>  <molecule>
CN(C(=O)[C@H]1CCCC[C@H]1C(=O)O)C(Cc1ccccc1)C(=O)NO (relative stereo)

>  <subject-of-test>
ACE (Rattus norvegicus)

>  <assay-result>
30

$$$$

P. CCN(CC(=O)NO)C(=O)[C@H]1CCCC[C@H]1C(=O)O (relative stereo)
Q. CN(C(=O)[C@H]1CCCC[C@H]1C(=O)O)C(CCCc1ccccc1)C(=O)NO (relative stereo)
R. CN(CC(=O)NO)C(=O)[C@H]1CCCC[C@H]1C(=O)O (relative stereo)
Please put the entries in order of rising IC50. Answer format: the labels, ordered as requested.
R, P, Q
